assay.text: Antagonist activity at PAR4 in ICR mouse platelet-rich plasma assessed as inhibition of PAR4 AP AYPGKF-NH2-induced platelet aggregation by photo-turbidimetry assay
pIC50: −log10 of the molar value.
Catalogue of pIC50 values

molecule | censoring.operator | pIC50
Cc1cn2nc(-c3cccc4ccoc34)sc2n1 | = | 5.12
Cc1cc(-c2ccc3ccccc3n2)c2ncn(C)c(=O)c2c1 | < | 5.00
CCc1cc(-c2nc3c(s2)CCCC3)c2ncn(CC)c(=O)c2c1 | < | 5.00
COCc1nc2cc(C)cc(-c3nc4c(Cl)cc(OC)cc4s3)c2[nH]1 | = | 5.79
Cc1cc(-c2cccc3ccccc23)c2ncn(C)c(=O)c2c1 | < | 5.00
COc1cc(Cl)c2nc(-c3cc(C)cc4c(=O)n(C(C)C)cnc34)sc2c1 | = | 5.01
COc1cc(F)c2nc(-c3cc(C)cc4c(=O)n(C)c(C)nc34)sc2c1 | = | 5.26
COc1cc(F)c2nc(-c3cccc4c(=O)n(C)cnc34)sc2c1 | = | 5.27
Cc1cc(-c2nc3c(Cl)cc(OCCN)cc3s2)c2ncn(C)c(=O)c2c1 | = | 5.52
Cc1cc(-c2nccs2)c2ncn(C)c(=O)c2c1 | = | 5.44
CCn1cnc2c(-c3nc4c(F)cc(OC)cc4s3)cc(C)cc2c1=O | = | 5.00
Cc1cc(-c2nc3c(Cl)cc(OCCNS(=O)(=O)c4ccc(C(F)(F)F)cc4)cc3s2)c2ncn(C)c(=O)c2c1 | = | 6.77
Cc1cc(-c2nc3c(Cl)cc(OCCNS(=O)(=O)c4ccc(Cl)cc4)cc3s2)c2ncn(C)c(=O)c2c1 | = | 5.98
CCCCc1cc(-c2nc3c(s2)CCCC3)c2ncn(CC)c(=O)c2c1 | = | 5.20
Cc1cc(-c2nc3c(Cl)cc(OCCNC(=O)c4ccccc4)cc3s2)c2ncn(C)c(=O)c2c1 | < | 5.00
Cc1cc(-c2nc3c(Cl)cc(OCCNS(C)(=O)=O)cc3s2)c2ncn(C)c(=O)c2c1 | < | 5.00
COc1ccccc1-c1cc(C)cc2c(=O)n(C)cnc12 | = | 5.14
Cc1cc(-c2cccc(Cl)c2Cl)c2ncn(C)c(=O)c2c1 | = | 5.43
Cc1cc(-c2nc3c(Cl)cc(Cl)cc3s2)c2ncn(C)c(=O)c2c1 | = | 5.58
Cc1cc(-c2nc3c(Cl)cc4c(c3s2)OCCO4)c2ncn(C)c(=O)c2c1 | = | 5.25
COc1cc(Cl)c2nc(-c3cc(C)cc4c(=O)n(C)c(C)nc34)sc2c1 | = | 5.68
